B1: SOAT1 (parent)
chain: GVLILFLTFFAFLHCWLNAFAEML

Variants of: B1
Assay: protein stability index of a GFP-peptide fusion (GPS, HEK-293T) (PSI 1-6); higher = more stable;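 further: lentivirally expressed fusions sorted by FACS into six bins by GFP to DsRed ratio, PSI derived from sequencing read proportions per bin multiplied by bin number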
Details: c terminus: a fixed tail appended
Each entry falls into one class according to its protein stability index; the ranges are low class: < 2; middle class: ≥ 2 and < 3; high class: ≥ 3

# input Category of GVLILFLTFFAFLHCWLNAFCEML :
# output middle class

# input Category of HVLILFLTFFAFLHCWLNAFAEML :
# output high class

# input Category of GVLILFLTHFAFLHCWLNAFAEML :
# output high class

# input Category of GVLILFLQFFAFLHCWLNAFAEML :
# output low class

# input Category of GVLILFLTFTAFLHCWLNAFAEML :
# output high class

# input Category of GVLILFLTFFAFAHCWLNAFAEML :
# output high class

# input Category of GVLILFLTFFAFLHCPLNAFAEML :
# output middle class

# input Category of GVLILFLTFFAFDHCWLNAFAEML :
# output high class

# input Category of GVLILDLTFFAFLHCWLNAFAEML :
# output low class

# input Category of GVLILFLTFFAFLHCWLNAMAEML :
# output middle class

# input Category of GVLILFLTFFAFLHCWLNAFAWML :
# output high class

# input Category of GVLILFLTFFASLHCWLNAFAEML :
# output high class

# input Category of GVLILFLTFFAFLHCWLNAFLEML :
# output low class

# input Category of GVLILFLTFFFFLHCWLNAFAEML :
# output middle class

# input Category of GVLILFLTFFAFLHDWLNAFAEML :
# output low class

# input Category of GVLILFLTFFAELHCWLNAFAEML :
# output high class

# input Category of GVLILFLEFFAFLHCWLNAFAEML :
# output middle class

# input Category of GVLILFLTFFAFLHSWLNAFAEML :
# output low class

# input Category of GVLILFLTFFAFLHCFLNAFAEML :
# output high class

# input Category of GVLILFLTFFAKLHCWLNAFAEML :
# output high class

# input Category of GVLILFLTFFAFLHCWLNACAEML :
# output middle class

# input Category of GVLILFLTFFAFLHCWLGAFAEML :
# output middle class

# input Category of GVLILFLTFFAFLHCWLNAFARML :
# output low class

# input Category of GVLILFLTFFAFLHCELNAFAEML :
# output high class

# input Category of GHLILFLTFFAFLHCWLNAFAEML :
# output middle class

# input Category of FVLILFLTFFAFLHCWLNAFAEML :
# output middle class

# input Category of EVLILFLTFFAFLHCWLNAFAEML :
# output high class

# input Category of GVLILFLTFFAFLHCVLNAFAEML :
# output high class

# input Category of GVLILFLTFFAFQHCWLNAFAEML :
# output high class

# input Category of GVLIVFLTFFAFLHCWLNAFAEML :
# output low class

# input Category of GVLILFLTFFAFLHCWLNAFAEFL :
# output middle class

# input Category of GVPILFLTFFAFLHCWLNAFAEML :
# output high class

# input Category of GVLILFLTFFAFLHQWLNAFAEML :
# output high class

# input Category of GVLILFLTFFAFLHCWLNAFAVML :
# output high class

# input Category of GVLILFLDFFAFLHCWLNAFAEML :
# output middle class

# input Category of GVLILFRTFFAFLHCWLNAFAEML :
# output high class

# input Category of GVAILFLTFFAFLHCWLNAFAEML :
# output middle class

# input Category of GVLILFLTFFAFYHCWLNAFAEML :
# output middle class

# input Category of GVLILFLTFFAFLHCWLNAFQEML :
# output high class

# input Category of GVLITFLTFFAFLHCWLNAFAEML :
# output middle class

# input Category of GVLILFLTFFAFLHKWLNAFAEML :
# output high class

# input Category of GVLILFLTFFAFLHCWLNAFAESL :
# output high class

# input Category of GVLILFLTFFAFLHCWANAFAEML :
# output middle class

# input Category of GVLSLFLTFFAFLHCWLNAFAEML :
# output middle class

# input Category of GVLILFLTFFAFLHCWLNWFAEML :
# output low class

# input Category of GVLILFLTCFAFLHCWLNAFAEML :
# output high class

# input Category of GFLILFLTFFAFLHCWLNAFAEML :
# output middle class

# input Category of GELILFLTFFAFLHCWLNAFAEML :
# output middle class

# input Category of GVLILFLCFFAFLHCWLNAFAEML :
# output low class

# input Category of GVLILFLTFFAFLHCWLNAFREML :
# output middle class

# input Category of GVLILFLTFFAFLGCWLNAFAEML :
# output middle class

# input Category of GVLILFLTFFAFLHCWLLAFAEML :
# output high class

# input Category of GVLILFLTFFHFLHCWLNAFAEML :
# output middle class

# input Category of GVLILFLTFFAFLHCWLNALAEML :
# output middle class

# input Category of GVLILFLTFLAFLHCWLNAFAEML :
# output middle class

# input Category of GVLILFLTFFAFLHCWLRAFAEML :
# output middle class

# input Category of GVLILFLTFFAFVHCWLNAFAEML :
# output middle class

# input Category of GVLILFLTFFAFLHCWLNAFGEML :
# output middle class

# input Category of GVLILFNTFFAFLHCWLNAFAEML :
# output high class

# input Category of GVLILFLTFFCFLHCWLNAFAEML :
# output low class

# input Category of KVLILFLTFFAFLHCWLNAFAEML :
# output middle class

# input Category of GVWILFLTFFAFLHCWLNAFAEML :
# output high class

# input Category of GVLILFLTFFARLHCWLNAFAEML :
# output middle class

# input Category of TVLILFLTFFAFLHCWLNAFAEML :
# output high class

# input Category of VVLILFLTFFAFLHCWLNAFAEML :
# output high class

# input Category of GVLILFLTFFAFLHCWLNAFAEMP :
# output middle class

# input Category of GVLILFLTIFAFLHCWLNAFAEML :
# output low class

# input Category of GVLILFLTFFAFLHCWLNAFAERL :
# output middle class

# input Category of GVLILFLTFFAFLHCWLNAFANML :
# output middle class

# input Category of GVLILFLTFFAFLLCWLNAFAEML :
# output low class

# input Category of GVLILFLTFFAFLHCWLNAFAEAL :
# output middle class

# input Category of GVLILFLTFFAFLHCWLNAFAQML :
# output middle class
